# target: recombinant homotrimeric HA A/California/4/09 H1N1 (Influenza A virus A/California/04/2009(H1N1))
# method: protein microarray, purified IgG, trimeric HA
# experimental-conditions: remark: other sources report otherwise
measured-property: Trimeric HA Binding: RLU (RLU)
One number for each entry, in RLU.

Could you tell me Trimeric HA Binding: RLU for each of these binders? They are listed below.
1. TCN-534 (5249_B02) (antibody, V domains shown) VH: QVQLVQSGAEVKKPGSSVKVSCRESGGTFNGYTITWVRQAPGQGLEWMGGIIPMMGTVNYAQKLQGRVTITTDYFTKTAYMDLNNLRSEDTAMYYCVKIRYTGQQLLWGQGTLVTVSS VL: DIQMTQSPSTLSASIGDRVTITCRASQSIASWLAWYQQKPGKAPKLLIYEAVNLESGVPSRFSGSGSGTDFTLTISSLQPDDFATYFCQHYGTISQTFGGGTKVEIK
2. TCN-551 (5243_D01) (antibody, V domains shown) VH: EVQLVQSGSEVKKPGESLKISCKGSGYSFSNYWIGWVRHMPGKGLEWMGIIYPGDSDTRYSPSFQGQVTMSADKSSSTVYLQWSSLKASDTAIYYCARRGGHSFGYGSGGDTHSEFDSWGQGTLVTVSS VL: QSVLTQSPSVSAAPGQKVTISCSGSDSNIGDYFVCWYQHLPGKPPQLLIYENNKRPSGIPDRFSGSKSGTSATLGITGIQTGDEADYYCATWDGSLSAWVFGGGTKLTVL

a:
[20700, 19400]
